Test system: T. viride
ASSAY TEXT: Mold resistance of treated wood stakes (ASTM D4445-91), T. viride
Assay type: cell-based, Trichoderma viride ATCC 20476
CONDITIONS: Example 2; dip-treated unseasoned southern yellow pine, 4 weeks; scale 0-5 (5 = 100% coverage)
Text: The biocide compositions were first tested for the efficacy in preventing mold fungal growth. […] The mold fungi were first prepared by growing the various mold fungi species on 2% malt agar. […] Spore suspensions were transferred to a spray bottle and diluted to 100 milliliters with DI water. The spray bottle was adjusted to deliver 1 milliliter inoculum/spray. […]
Sorting guide: entries reporting Mold Resistance Average Rating, T. viride beneath 1 go in the YES pile, the rest go in the NO pile.

C[C@@H](c1ncncc1F)[C@](O)(Cn1cncn1)c1ccc(F)cc1F [Sample 42, Voriconazole]
NO

In plain terms, does Clc1ccc(COC(Cn2ccnc2)c2ccc(Cl)cc2Cl)c(Cl)c1 (centres unmarked) come in under 1 for Mold Resistance Average Rating, T. viride? YES

In plain terms, does O=C([O-])c1ccccc1.[Na+] [Sample 13, Sodium benzoate] come in under 1 for Mold Resistance Average Rating, T. viride? NO

In plain terms, does C[C@@H](c1ncncc1F)[C@](O)(Cn1cncn1)c1ccc(F)cc1F [Sample 41, Voriconazole] come in under 1 for Mold Resistance Average Rating, T. viride? NO

In plain terms, does CCC(=O)[O-].CCC(=O)[O-].[Ca+2] [Sample 19, Calcium propionate] come in under 1 for Mold Resistance Average Rating, T. viride? NO

In plain terms, does c1ccc2[nH]c(-c3cscn3)nc2c1 [Sample 47, Thiabendazole] come in under 1 for Mold Resistance Average Rating, T. viride? YES

In plain terms, does `OC(Cn1cncn1)(Cn1cncn1)c1ccc(F)cc1F` come in under 1 for Mold Resistance Average Rating, T. viride? NO

In plain terms, does CCC(=O)[O-].CCC(=O)[O-].[Ca+2] [Sample 18, Calcium propionate] come in under 1 for Mold Resistance Average Rating, T. viride? NO

In plain terms, does O=NO [Sample 28, Sodium nitrite] come in under 1 for Mold Resistance Average Rating, T. viride? NO

###

System: P. chrysogenum
ASSAY TEXT: Mold resistance of treated wood stakes (ASTM D4445-91), P. chrysogenum
Format: cell-based, Penicillium chrysogenum PH02
ENDPOINT LABEL: Mold Resistance Average Rating, P. chrysogenum

C/C=C/C=C/C(=O)[O-].[K+] [Sample 22, Potassium sorbate]
0.0
C/C=C/C=C/C(=O)[O-].[K+] [Sample 23, Potassium sorbate]
0.0
C/C=C/C=C/C(=O)[O-].[K+] [Sample 20, Potassium sorbate]
5.0

Each compound below has a reported value. Please supply its Mold Resistance Average Rating, P. chrysogenum.
1. C/C=C/C=C/C(=O)[O-].[K+] [Sample 24, Potassium sorbate]
2. C/C=C/C=C/C(=O)[O-].[K+] [Sample 21, Potassium sorbate]

[1.7, 2.6]

###

Test system: T. viride
ASSAY TEXT: Mold resistance of treated wood stakes (ASTM D4445-91), T. viride
Assay type: cell-based, Trichoderma viride ATCC 20476
CONDITIONS: Example 2; dip-treated unseasoned southern yellow pine, 4 weeks; scale 0-5 (5 = 100% coverage)
ENDPOINT LABEL: Mold Resistance Average Rating, T. viride
Answers are plain numbers.

c1ccc2[nH]c(-c3cscn3)nc2c1 [Sample 45, Thiabendazole]
2.5
O=C[O-].[Na+] [Sample 26, Sodium formate]
4.1
CC(C)c1cccc(O)c(=O)c1
0.0
O=C([O-])c1ccccc1.[Na+] [Sample 14, Sodium benzoate]
1.0
O=C[O-].[Na+] [Sample 25, Sodium formate]
4.3

Each compound below has a reported value. Please supply its Mold Resistance Average Rating, T. viride.
1. O=C([O-])c1ccccc1.[Na+] [Sample 16, Sodium benzoate]
2. C[C@@H](c1ncncc1F)[C@](O)(Cn1cncn1)c1ccc(F)cc1F [Sample 43, Voriconazole]
3. C[C@@H](c1ncncc1F)[C@](O)(Cn1cncn1)c1ccc(F)cc1F [Sample 44, Voriconazole]

1: 0.7; 2: 0.4; 3: 0.1
